Target: Cannabinoid receptor 1 (Mus musculus, UniProt P47746)
Sequence (P47746 whole entry): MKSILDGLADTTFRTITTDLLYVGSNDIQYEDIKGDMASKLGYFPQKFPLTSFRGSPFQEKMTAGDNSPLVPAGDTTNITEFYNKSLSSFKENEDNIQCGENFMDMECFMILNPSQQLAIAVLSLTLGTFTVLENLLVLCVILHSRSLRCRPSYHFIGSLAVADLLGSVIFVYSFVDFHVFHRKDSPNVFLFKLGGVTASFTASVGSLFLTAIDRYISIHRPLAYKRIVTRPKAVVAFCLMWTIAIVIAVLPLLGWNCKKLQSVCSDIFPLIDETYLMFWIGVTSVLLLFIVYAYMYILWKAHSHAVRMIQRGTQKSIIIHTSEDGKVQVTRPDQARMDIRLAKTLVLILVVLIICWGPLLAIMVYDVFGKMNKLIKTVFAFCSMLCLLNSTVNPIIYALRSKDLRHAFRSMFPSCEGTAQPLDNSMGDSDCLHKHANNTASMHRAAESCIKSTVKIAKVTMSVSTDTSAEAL
Experiment: Displacement of [3H]CP 55940 from CB1 receptor in mouse whole brain membrane homogenates after 90 mins by liquid scintillation counting
Strictly below 100 nM in Ki: True. Otherwise: False.

compound: OC1/C(=C/c2cn(Cc3ccc(Cl)cc3)c3ccccc23)N2CCC1CC2 (racemic)
cat: True
//
compound: O/N=C1/C(=C/c2cn(Cc3ccccc3)c3ccccc23)N2CCC1CC2
cat: False
//
compound: O/N=C1/C(=C/c2cn(Cc3ccc(Cl)cc3)c3ccccc23)N2CCC1CC2
cat: True
//
compound: N#Cc1ccc(Cn2cc(/C=C3/C(=O)C4CCN3CC4)c3ccccc32)cc1
cat: True
//
compound: O=C1/C(=C/c2cn(Cc3ccccc3)c3ccccc23)N2CCC1CC2
cat: False
